I'd appreciate it if you could supply PET hydrolysis values for the items below.
- assay.name: PET hydrolysis, aromatic products released after 48 h (umol product/mg enzyme); higher = more PET depolymerization activity
- conditions.used: substrate: aFilm; 60 °C; pH 7.5

Query: PET hydrolysis; subject: ADTPYERGPNPSESLIEQRRGNYDIAQRSISRFSSDGFRNGTIYYPTDTSDGKFGVIAISPGYTAGESSIAWLGSRIASFGFVVVTINTTTRYDQPRQRSTQLLAALDHAMNDSVVGPLIDPERQAVMGHSMGGGGALQAAESRPEIDAVVALTPWNLKKNWDGVDAATLIIGAERDTVASVRTHSIPFYESLTQAEQRGYLELRGASHFAPNVSNTTIAKYSIAWMKRYLDNDDRYDQFLNPGPAVGYASGVSDYRLQ [DP003]
< 3

Query: PET hydrolysis; subject: APPARVAALATTAYQRGPAPTLSGVRAALGPFSYSTASVSAAATGYTFGGGTVYYPDDTSQGTFGGIAVTPGYTGTEGSIAWLGPRLASQGFVVITIATKSLYDQPTARGQQLLAALDYLKTYSPAAVRQRLDPQRLAVSGHSMGGGGALYAVWSRPSLKAAVPLAPYHTIKNWSAITVPTLIEAGTADTVTPVGTFAEPIYQSLTGASERAYAEVAGANHLTFTAENPLIGGLEVAWMKRFVDDDARYDQFLCPAPTDPGLTEYRDSCPTS [TEP101]
< 3

Query: PET hydrolysis; subject: MSNPYQRGPNPTRSALTADGPFSVATYTVSRLSVSGFGGGVIYYPTGTSLTFGGIAMSPGYTADASSLAWLGRRLASHGFVVLVINTNSRFDGPDSRASQLSAALNYLRTSSPSAVRARLDANRLAVAGHSMGGGGTLRIAEQNPSLKAAVPLTPWHTDKTFNTSVPVLIVGAEADTVAPVSQHAIPFYQNLPSTTPKVYVELCNASHIAPNSNNAAISVYTISWMKLWVDNDTRYRQFLCNVNDPALCDFRTNNRHCQLEHHHHHH [LCC-ICCG]
965

----------
- assay.name: melting temperature (DSF); higher = more thermostable
I'd appreciate it if you could supply melting temperature values for the items below.

Query: melting temperature; subject: VQIGPAPTKASLEASRGPFTVATTRLSANGHGGGTIYYPTNAGAKVGVIAIVPGYLSYQSSIEWWGPRLASHGFAVVTIDTLTIYDQPSSRSSQQLRALDQVVALGSKSTSPLYNKVDGSRTGVMGWSMGGGGSLISAQNRPSIKAAAPQAPWNTTSNFSSLTVPTLIFACQADVVAPILSHAVPFYNSMSRNPKQYLERTAGDHFCFNNANPTVGLKGVAWMKRFIDGDTRYTSFACSNPNALGFSSFRTERCS [ESM053]
62.8 C

Query: melting temperature; subject: ADNPYERGPNPTQASIAASRGTFATAEVSVGGGNGFAAAKIYYPTDTSQGTFGAIAIVPGYTATWAAEGAWMGPWLASFGFVVIGIDTLSRNDFDTARGTQLLAALDYLTQRSSVRSRVDASRLAVMGHSMGGGGAISAALRRPSLKAAVGLAPFSPSQGTSGMRVPSMLLAGQRDGTVTPSSVRNLYNAIPATTEKAYLELTGAGHGFPTSANSVMMRKVIPWLKIFVDQDTRYQQFLCPLVDWTGITSYQSSCPLIPGGSTGTTYNLVNSSGKCADVNAASQVNGAALLLWTCHTNPNQRWTETSAKELRVYDNPKCMDAGAAQQGTRVTINSCSGGGSQKWTVNANGTVTNDLSGRCLGAAGGATTDNTPLVVASCDGSPGQQWTKQS [TEP093]
69.7 C
